Entries and their measured TGI follow.
Tested on: UACC-257 melanoma
ASSAY SUMMARY: NCI tumour cell line growth inhibition, 48 h

Solved cases below.
1. COc1ccc(OC)c(/C=C2/C(=O)N=C(NC(C)=O)N2C)c1; > 100 µM
2. C(=NC12CC3CC(CC(C3)C1)C2)C1CCCCC1; > 100 µM
3. NS(=O)(=O)c1c(O)c2ccccc2oc1=O; > 100 µM
4. O=S1(=O)C(=C(c2ccccc2)c2ccccc2)S(=O)(=O)c2ccccc21; > 100 µM
5. CCCCCC(=O)OC[n+]1cccc(-c2c(COC(=O)NC(C)C)c(COC(=O)NC(C)C)c3n2CCC3)c1; > 100 µM

Input line: Which TGI value is on record for Cc1nc2ccccc2n1Cc1nnc(-c2ccccc2)o1 ?
Output line: > 100 µM

Input line: Give its TGI value. Item: Nc1cc(C(F)(F)F)c(-c2nc(N3CCOCC3)nc(N3CCOCC3)n2)cn1
Output line: 2.98 µM

Input line: What value of measured TGI is listed for O=C(O)c1ccccc1/C=C1\Cc2cc3c(cc2C1=O)CCC3 ?
Output line: 79.2 µM

Input line: Tell me the measured TGI of O[C@@H]1[C@H](OC2c3ccccc3-c3ccccc32)[C@H](OCc2ccccc2)[C@@H]2OC[C@H]1O2 , please.
Output line: > 100 µM

Input line: Consider the molecule shown here: O=C1c2ccccc2C2(O)N(c3ccccc3)C(=S)N(c3ccccc3)C12O (centres undefined) What is its recorded TGI?
Output line: > 100 µM

Input line: Find the recorded TGI belonging to CCOc1ccc(OP2(=O)NC(=O)C=C(C)N2)cc1 (centres undefined) and report it.
Output line: > 100 µM

Input line: I am curious: what TGI value has been reported for CCOc1ccc(NC(=O)C(=O)C(/C(=N/N)C(=O)OC)c2nc3ccc([N+](=O)[O-])cc3[nH]c2=O)cc1 (centres undefined) ?
Output line: > 100 µM

Input line: Give its TGI value. Item: CC1=C(C(=O)NNC(=O)C[N+](C)(C)C)CC(C(=O)NNC(=O)C[N+](C)(C)C)=C(C)N1
Output line: > 100 µM

Input line: Suppose we examine the molecule CC(=O)NC(CCCNC(=O)OCc1ccccc1)C(=O)NCc1ccccc1 (centres undefined) ; what TGI value has been reported?
Output line: > 100 µM

Input line: Which TGI value belongs to Cc1ccccc1NC(=O)C1C(=O)N(c2ccccc2C)C(=O)/C1=N\NC(N)=O (centres undefined) ?
Output line: > 100 µM

The reported numbers originate from PubChem BioAssay (NCI).
